Values were extracted from patent US20220259593A1.

What relative_activity_day10 was measured for each of the following?
system: K562 CRISPRi cells; experiment: Perturb-seq pooled growth measurement (sgRNA counts, growth phenotype γ, relative activity); format: cell-based, human; settings: γ relative to perfectly matched sgRNA (_00) of the same gene, day 10
Format: numeric value only, no unit, no commentary.

Looking up SEC61A1_ −_127771295.23-P1_02 (guide GGCGCTGACGTGTCTCTCGG; listed as DNA, chemistry not fully specified) , I found its relative_activity_day10 recorded as 0.7203

Looking up GATA1_ −_48645022.23-P1P2_08 (guide GTGAGCTTTCCACATCCCCA; listed as DNA, chemistry not fully specified) , I found its relative_activity_day10 recorded as 0.7953

Looking up POLR2H_ + _184081251.23-P1P2_00 (guide GGGGCCACGAGAGCAGCAGA; listed as DNA, chemistry not fully specified) , I found its relative_activity_day10 recorded as 1

Looking up DUT_ + _48624411.23-P1P2_08 (guide GCGAGCGAGGAGGCCACCGG; listed as DNA, chemistry not fully specified) , I found its relative_activity_day10 recorded as 0.9077
